Recorded measurements of melting point, one per entry

# molecule, melting point
data = [
    ("COC(=O)C=Cc1ccc(OCCCCCCN2CC(O)C(O)C(O)C2CO)cc1 (stereo not drawn)", "110 to 113 °C"),
    ("COC(=O)C=Cc1ccc(OCCCCN2CC(O)C(O)C(O)C2CO)cc1 (stereo not drawn)", "157 to 160 °C"),
    ("CCOC(=O)/C=C/c1ccc(OCCN2CC(O)C(O)C(O)C2CO)c(OC)c1 (stereo not drawn)", "146 to 148 °C"),
    ("COC(=O)C=Cc1ccc(OCCCN2CC(O)C(O)C(O)C2CO)cc1 (stereo not drawn)", "104 to 107 °C"),
    ("COC(=O)/C=C/c1ccc(OCCN2CC(O)C(O)C(O)C2CO)cc1 (stereo not drawn)", "185 to 187 °C"),
    ("COC(=O)C=Cc1ccc(OCCCCCN2CC(O)C(O)C(O)C2CO)cc1 (stereo not drawn)", "85 to 86 °C"),
]

This collection of values is drawn from paper PMC7580737.
